Numbers sourced from PubChem BioAssay (NCI).

System: UO-31 renal
Assay: NCI tumour cell line growth inhibition, 48 h
Measured GI50, listed per entry.

[
  {
    "smiles": "Oc1c(Br)cc(Br)c2ccc(Cn3cc(-c4ccc(C(F)(F)F)cc4)nn3)nc12",
    "targetUnderTest": "UO-31 renal",
    "GI50": "1.68 µM"
  }
]

Recorded GI50 for COc1cccc(C2=C(c3cn(C)c4ccc(Cl)cc34)C(=O)NC2=O)c1 on UO-31 renal was 5.07 µM

Recorded GI50 for N#CC1(Nc2ccc(Br)cc2)CCCC1 on UO-31 renal was 4.69 µM

Recorded GI50 for COc1ccc(/C(C)=C(\c2ccc(Cl)cc2)c2ccc(OCCN3CCCCC3)cc2)cc1 on UO-31 renal was 3.46 µM

Recorded GI50 for COc1cc2c(/C=C3/C(=O)Nc4c3ccc3ccccc43)c(Cl)n(C)c2cc1C on UO-31 renal was < 0.0183 µM

Recorded GI50 for O=C(Nc1ncc(Cc2ccccc2)s1)c1sc2ccccc2c1Cl on UO-31 renal was 1.41 µM

Recorded GI50 for CSc1nc(-c2cc3ccccc3o2)cc(-c2ccc(Cl)cc2)c1C#N on UO-31 renal was 1.73 µM

Recorded GI50 for CC[N+](CC)=c1cc2oc3cc(N(C)C)ccc3nc-2cc1C on UO-31 renal was 3.76 µM

---

Tested on: HOP-62 NSCLC
Test: NCI tumour cell line growth inhibition, 48 h
testReadout: TGI (µM)
Kindly answer with a numeric value in µM, unit omitted.

// solved cases for TGI follow
[
  {
    "compound": "C=C1CC2(CC(c3ccccc3OC)OC(c3ccccc3OC)C2)OC1=O (stereo not given)",
    "targetUnderTest": "HOP-62 NSCLC",
    "unitText": "µM",
    "TGI": 26.8
  },
  {
    "compound": "Cc1cc(C(=O)NCCN(C)C)c2nc3ccccc3cc2c1",
    "targetUnderTest": "HOP-62 NSCLC",
    "unitText": "µM",
    "TGI": 6.38
  },
  {
    "compound": "CC1CCC2C(C)(C)CC3(C)CCC1C23O (stereo not given)",
    "targetUnderTest": "HOP-62 NSCLC",
    "unitText": "µM",
    "TGI": 30.6
  }
]

Next up:
Value of TGI reported for the compound COc1ccc2c(c1)n([O-])c1cc(C#N)ccc1[n+]2=O is 15.6

---

System: PC-3 prostate
Assay: NCI tumour cell line growth inhibition, 48 h
Square brackets hold non-standard residues; d marks the D form. Peptide text beside a SMILES is read from it. * marks the point of attachment. Boc = CC(C)(C)OC(=O)*; OBn = c1ccc(CO*)cc1
testReadout: TGI

// solved cases for TGI follow
[
  {
    "compound": "CC(C)(C)COC1C2(OCCO2)C2CCC1(C)C2(C)C (centres undefined)",
    "TGI": "54.5 µM"
  },
  {
    "compound": "C=C(CBr)CCCOCc1ccccc1",
    "TGI": "39.8 µM"
  },
  {
    "compound": "c1csc(-c2cc(-c3ccsc3)c(-c3ccsc3)s2)c1",
    "TGI": "> 100 µM"
  },
  {
    "compound": "CC(=O)OC1CN2CCC1CC2 (centres undefined)",
    "TGI": "> 100 µM"
  }
]

Recorded TGI for CN[C@@H](C)C(=O)N[C@H]1CCS[C@H]2CC(C)(C)[C@@H](C(=O)N[C@H]3c4ccccc4C[C@H]3OCC#CC#CCO[C@@H]3Cc4ccccc4[C@@H]3NC(=O)[C@H]3N4C(=O)[C@@H](NC(=O)[C@H](C)NC)CCS[C@H]4CC3(C)C)N2C1=O on PC-3 prostate was > 50 µM

Recorded TGI for CC(=O)OCC1OC(N2C(=O)NC(=O)C3C=C4CCCCC4=CC32)C(OC(C)=O)C1OC(C)=O (centres undefined) on PC-3 prostate was > 100 µM

Recorded TGI for O=C(c1ccc(Cl)cc1)N(C(=S)OC12CC3CC(CC(C3)C1)C2)c1ccccc1 on PC-3 prostate was > 100 µM

Recorded TGI for C[C@@H](NC(=O)CNC(=O)OC(C)(C)C)C(=O)N[C@@H](Cc1ccccc1)C(=O)OCc1ccccc1 (Boc-Gly-[dA]-Phe-OBn) on PC-3 prostate was > 100 µM

Recorded TGI for CNC(=O)c1ccccc1Nc1cc(Nc2ccc(N3CCOCC3)cc2OC)ncc1C(F)(F)F on PC-3 prostate was > 100 µM
